Reference source: PubChem BioAssay (NCI)

Tested on: SK-OV-3 ovarian
Assay: NCI tumour cell line growth inhibition, 48 h
assay-readout: TGI

Consider the worked cases shown below.
>>> result("COc1ccc(/C=c2/sc3n(c2=O)NC2(CCCCC2)NN=3)cc1")
"> 100 µM"
>>> result("O=C(Nc1ccc2ncccc2c1)c1cc2c(cc1Cl)Sc1nccn1S2(=O)=O")
"62.5 µM"
>>> result("CC1CC(=O)C2CC(CO)=CCCC2C1(C)CC/C(=C/CO)CO (stereo unspecified)")
"> 100 µM"
>>> result("CCC1(O)CC(OC2CC(N(C)C)C(OC3CC(O)C(OC4CCC(=O)C(C)O4)C(C)O3)C(C)O2)c2c(cc3c(c2O)C(=O)c2c(O)ccc(O)c2C3=O)C1C(=O)OC (stereo unspecified)")
"13.3 µM"
>>> result("CC1(C)c2ccccc2C(C)(C)C(C(=O)Nc2ccccc2)C1C(=O)O (stereo unspecified)")
"> 100 µM"

We now examine a further compound.
Which TGI is listed for CCOC(=O)/C(C#N)=C/c1ccc(SCc2ccco2)c([N+](=O)[O-])c1 ?
> 100 µM

----------
Test system: SK-OV-3 ovarian
Experiment: NCI tumour cell line growth inhibition, 48 h
assay-readout: TGI

Consider the worked cases shown below.
>>> result("CCOC(=O)c1cn2c(n1)sc1cc(C)c(C)cc12")
"69.2 µM"
>>> result("O=c1[nH]c2cc(F)c(F)cc2nc1Cc1ccccc1")
"> 100 µM"
>>> result("O=Cc1cn(Cc2ccc(Cl)cc2)c2ccccc12")
"44.8 µM"
>>> result("CN(C(=O)CCC(=O)O)c1ccccc1C(=O)O")
"> 100 µM"
>>> result("CC(=O)OC1CCC2(C)C(CCC3C4CC=C(C5(C)OCCO5)C4(C)CCC32)C1 (stereo unspecified)")
"> 100 µM"

Which TGI is listed for COC(=O)C1=C(C(=O)OC)C2(CCCCCC2=O)OC1=O (stereo unspecified) ?
> 100 µM

Okay, and ClCCn1cnc2c(SCc3ccccc3Cl)ncnc21 ?
> 100 µM

Okay, and CCCCCCCC(=O)SCC/C=C/[C@@H]1CC(=O)NCc2cccc(n2)CN(Cc2ccc3ccccc3c2)CC(=O)N[C@@H](C(C)C)C(=O)O1 ?
> 100 µM

Okay, and COC(=O)C(Cc1ccc2c(c1)CCCC2)Cc1cc2c(cc1C(O)OC)CCC2 (stereo unspecified) ?
> 100 µM

Okay, and COc1ccc2nc3ccccc3c(NCc3ccc(Cl)cc3)c2c1 ?
9.8 µM

Okay, and CCCc1[nH]nc(C(N)=O)c1N=NN(C)C ?
> 100 µM

----------
Consider the following molecules and their measured log10 TGI readings.
Test system: SF-295 CNS
Assay: NCI tumour cell line growth inhibition, 48 h
Short version: log10 scale, TGI, µM.

Consider the worked cases shown below.
>>> result_number("O=C(N/N=C/c1cc(Cl)cc(Cl)c1[O-])c1ccccc1O.O=C(N/N=C/c1cc(Cl)cc(Cl)c1[O-])c1ccccc1O.[Cl-].[Fe+3]")
1.35
>>> result_number("CC[C@@]1(O)C(=O)OCc2c1cc1n(c2=O)Cc2c-1nc1ccccc1c2Cl")
-0.29
>>> result_number("CC(C)OC(=O)c1cc(NS(=O)(=O)c2ccc3ccccc3c2)cc(C(=O)OC(C)C)c1")
1.90
>>> result_number("O=c1ccc2nc(C(F)(F)F)nn(-c3ccccc3)c-2c1")
1.83
>>> result_number("CN(C)CCCNCc1ccc(-c2ccc(F)c(Cl)c2)o1")
1.49
>>> result_number("C[n+]1c2ccccc2c(Nc2ccc(N3CCCCC3)cc2)c2[nH]c3ccccc3c21")
0.19

Which log10 TGI is listed for CCOC(=O)c1nnn(-c2no[n+]([O-])c2-c2ccc(OC)cc2)c1COc1cccc2cccnc12 ?
1.14

Okay, and C/C(=N/OC(=O)c1cccc2c(=O)c3ccccc3[nH]c12)[C@H]1CC[C@H]2[C@@H]3CCC4=C/C(=N/OC(=O)c5cccc6c(=O)c7ccccc7[nH]c56)CC[C@]4(C)[C@H]3CC[C@]12C ?
1.54

Okay, and COc1cc(/C=C2\N=C(c3ccccc3)N(c3nc4ccc(Sc5ccccc5)cc4[nH]3)C2=O)ccc1O ?
1.98

Okay, and O=C(N/N=C/c1c(Cl)cccc1Cl)c1cccnc1Nc1cccc(C(F)(F)F)c1 ?
1.15

----------
Consider the following molecules and their measured GI50 readings.
System: UACC-62 melanoma
Test: NCI tumour cell line growth inhibition, 48 h

Consider the worked cases shown below.
>>> result("Oc1cccc(-c2nc(-c3n[nH]c(=S)n3-c3ccccc3)cc3c2[nH]c2ccccc23)c1")
"2400 nM"
>>> result("CC(C)=CC(=O)OC1C(CO)OC(Oc2cc(O)c3c(=O)cc(-c4ccc(O)c(O)c4)oc3c2)C(OC2OC(C)C(O)C(O)C2O)C1O (stereo not drawn)")
"> 100000 nM"
>>> result("COc1ccc2nc3cccc([N+](=O)[O-])c3c(NCCNCCO)c2c1")
"16.2 nM"
>>> result("Cc1cc(N(CCNc2ccnc3cc(Cl)ccc23)Cc2cccs2)nc(Cl)n1")
"1690 nM"
>>> result("Cc1nn(CCO)c(C)c1N=[N+]([O-])c1c(C)nn(CCO)c1C")
"8480 nM"

Which GI50 is listed for C=CC(=O)N1C[C@H](COc2nc(Nc3cnn(C)c3)nc3[nH]cc(Cl)c23)[C@@H](OC)C1 ?
2890 nM

----------
Consider the following molecules and their measured TGI readings.
System: HCT-15 colon
Test: NCI tumour cell line growth inhibition, 48 h

>>> result("COc1cc([C@@H]2C3C(=O)c4ccccc4C3[C@@H](c3cc(OC)c(OC)c(OC)c3)C23Cc2ccccc2C3=O)cc(OC)c1OC (stereo not given in full)")
"> 100 µM"

Which TGI is listed for CCCNC(=S)N=Nc1c(O)[nH]c2ccccc12 ?
> 100 µM

Okay, and CCOC(=O)C(NC(=O)CC)(Nc1ccccc1OC)C(F)(F)F (stereo not given) ?
> 100 µM

Okay, and C[n+]1c2ccccc2c(Nc2ccc(N3CCCCC3)cc2)c2[nH]c3ccccc3c21 ?
0.324 µM

Okay, and CCOC(=O)c1c(SCc2ccccc2)nc2c3ccccc3ccn12 ?
> 100 µM

Okay, and CC(=O)NNc1nc(C)c(C(=O)/C=C/c2cccc([N+](=O)[O-])c2)s1 ?
> 100 µM

Okay, and COC(=O)C1=CN(CC2=CC(=O)C(C)=CC2=O)C=C(C(=O)OC)C1c1cc(OC)ccc1OC ?
30 µM

Okay, and C=C1C(NC)CCC23CC24CCC2(C)C(C(C)=O)C(O)CC2(C)C4CCC13 (stereo not given) ?
> 100 µM

Okay, and CC1=NN(C(=O)CC(=O)N(C(=O)c2ccccc2)c2ccc(Cl)cc2)C(=O)C1N=Nc1ccc([N+](=O)[O-])cc1 (stereo not given) ?
> 10 µM

Okay, and C=C1CCc2ccccc2C1=O ?
> 100 µM

----------
Test system: LOX IMVI melanoma
Assay: NCI tumour cell line growth inhibition, 48 h; in the data active = GI50 below about 0.43 µM; inactive = the rest
Give your call using only these classes: active, inactive

>>> category("C(=C1c2ccccc2-c2ccccc21)c1ccncc1")
"inactive"
>>> category("CC1(C)CC[C@]2(C(N)=O)CC[C@]3(C)C(=CC[C@@H]4[C@@]5(C)C/C(=C/c6cccnc6)C(=O)C(C)(C)[C@@H]5CC[C@]43C)[C@@H]2C1")
"inactive"
>>> category("Cc1ccc(Cl)cc1-c1nc(N)nc(Nc2ccc(Br)cc2)n1")
"active"
>>> category("Cc1cc(Oc2ccccc2)ccc1Nc1ncnc2ccc(-c3cnc(Cl)c(NS(C)(=O)=O)c3)cc12")
"inactive"

Hi, do you know how C=CC(=O)N1C[C@H](COc2nc(Nc3cnn(C)c3)nc3[nH]cc(Cl)c23)[C@@H](OC)C1 came out in this test?
inactive

Okay, and CCCN(CCC)c1ccc(CO)c(Cl)c1 ?
inactive

Okay, and Nn1c2c(c3ccccc3c1=O)C(=O)c1ccccc1-2 ?
inactive

Okay, and COc1ccc(N2CCN(C(=O)c3ccc(C(F)(F)F)nc3Nc3cc(Cl)ccc3C)CC2)cc1 ?
inactive

Okay, and CCCCCCCC(=O)SCC/C=C/[C@@H]1CC(=O)NCc2cccc(n2)CN(Cc2ccc3ccccc3c2)CC(=O)N[C@@H](C(C)C)C(=O)O1 ?
inactive

----------
Consider the following molecules and their measured TGI readings.
Tested on: OVCAR-4 ovarian
Assay: NCI tumour cell line growth inhibition, 48 h

>>> result("C/C(=N/OC(=O)c1cccc2c(=O)c3ccccc3[nH]c12)[C@H]1CC[C@H]2[C@@H]3CCC4=C/C(=N/OC(=O)c5cccc6c(=O)c7ccccc7[nH]c56)CC[C@]4(C)[C@H]3CC[C@]12C")
"> 100 µM"
>>> result("CC1(C)CN=C(Nc2ccc(F)cc2)S1")
"> 100 µM"
>>> result("C[n+]1c2ccccc2c(Nc2ccc(N3CCCCC3)cc2)c2[nH]c3ccccc3c21")
"1.23 µM"
>>> result("CC1=NN(C(=O)CC(=O)N(C(=O)c2ccccc2)c2ccc(Cl)cc2)C(=O)C1N=Nc1ccc([N+](=O)[O-])cc1 (stereo not given)")
"> 10 µM"
>>> result("NCCCN1CCN(c2ccccc2)CC1")
"> 100 µM"
>>> result("O=C1CCC2(c3ccc(F)cc3)Nc3ncccc3N12 (stereo not given)")
"> 100 µM"
>>> result("O=C1C(Cl)N(c2ccc(Cl)cc2Cl)C1c1c[nH]c2ccccc12 (stereo not given)")
"> 100 µM"
>>> result("Oc1ccc(-c2nc(=S)[nH][nH]2)cc1")
"> 100 µM"
>>> result("CCOC(=O)/C(SC#N)=C(/N)N1CCCC1")
"> 100 µM"

We now examine a further molecule.
Which TGI is listed for CCOP(=O)(/C=C/n1ccc(N)nc1=O)OCC ?
> 100 µM
